B1: HDV Ribozyme (parent)
chain: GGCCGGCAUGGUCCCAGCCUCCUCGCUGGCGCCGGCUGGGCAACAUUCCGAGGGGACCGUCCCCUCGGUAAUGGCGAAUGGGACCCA

Variants of: B1
test details: self-cleavage, relative activity (ratio to wild type); higher = more cleavage; co-transcriptional
measure name: self-cleavage
Please reply with the number alone, leaving off any unit.

Example variants with recorded self-cleavage:
* G28A A51G | 0.0326
* G52C G76C | 1.03
* U60C C61G | 0.751

Ask | Param item = U12G C24U ; retrieve measured self-cleavage.
Reply | 0.511

Ask | G53U C57U , same question.
Reply | 1.01

Ask | C41G U69G , same question.
Reply | 0.755

Ask | G35C U65A , same question.
Reply | 0.233

Ask | C21U C86U , same question.
Reply | 0.282

Ask | C48A C64A , same question.
Reply | 0.867

Ask | C14U C18G , same question.
Reply | 0.0875

Ask | A56U C64A , same question.
Reply | 0.899

Ask | G1A C36G , same question.
Reply | 0.119

Ask | C32G C44A , same question.
Reply | 0.0791

Ask | U12A G81C , same question.
Reply | 0.0723
